pIC50: −log10 of the molar value.
The entries below pair compounds with pIC50 values for Proto-oncogene tyrosine-protein kinase receptor Ret (Homo sapiens, UniProt P07949), as found in several publications.

Solved entries (count: 6):
- Record Smiles: "CN1CCN(c2ccc(OC(F)(F)F)c(Nc3nccc(-c4cc(C(N)=O)cn4C)n3)c2)CC1"
  pIC50: "< 5.00"
- Record Smiles: "COc1cc(=O)n(-c2ccc(Oc3ccnc(N)c3Cl)c(F)c2)cc1C(=O)NCc1ccc(F)cc1"
  pIC50: "< 4.60"
- Record Smiles: "N[C@@H](CCCCN/C=C1\\C(=O)Nc2ccc(Br)cc21)C(=O)O"
  pIC50: "< 5.00"
- Record Smiles: "COC(Cn1nc(-c2ccc3oc(N)nc3c2)c2c(N)ncnc21)OC"
  pIC50: "< 4.00"
- Record Smiles: "CNc1ncc2c(-c3ccc(N4CCN(C(=O)C(C)(C)C)CC4)nc3)nn(CC3CCCC3)c2n1"
  pIC50: "< 5.00"
- Record Smiles: "CNc1ncc2c(-c3ccc(N4CCNCC4)cc3)nn(Cc3cn(Cc4ccccc4)nn3)c2n1"
  pIC50: "< 5.00"

Q) Recall the reported pIC50 of CCN1CCN(Cc2ccc(NC(=O)CNc3ccc(-c4ccc(NC(=O)C5CC5)nc4)cc3)cc2C(F)(F)F)CC1 when tested on Proto-oncogene tyrosine-protein kinase receptor Ret (Homo sapiens, UniProt P07949).
Sequence (P07949 whole entry): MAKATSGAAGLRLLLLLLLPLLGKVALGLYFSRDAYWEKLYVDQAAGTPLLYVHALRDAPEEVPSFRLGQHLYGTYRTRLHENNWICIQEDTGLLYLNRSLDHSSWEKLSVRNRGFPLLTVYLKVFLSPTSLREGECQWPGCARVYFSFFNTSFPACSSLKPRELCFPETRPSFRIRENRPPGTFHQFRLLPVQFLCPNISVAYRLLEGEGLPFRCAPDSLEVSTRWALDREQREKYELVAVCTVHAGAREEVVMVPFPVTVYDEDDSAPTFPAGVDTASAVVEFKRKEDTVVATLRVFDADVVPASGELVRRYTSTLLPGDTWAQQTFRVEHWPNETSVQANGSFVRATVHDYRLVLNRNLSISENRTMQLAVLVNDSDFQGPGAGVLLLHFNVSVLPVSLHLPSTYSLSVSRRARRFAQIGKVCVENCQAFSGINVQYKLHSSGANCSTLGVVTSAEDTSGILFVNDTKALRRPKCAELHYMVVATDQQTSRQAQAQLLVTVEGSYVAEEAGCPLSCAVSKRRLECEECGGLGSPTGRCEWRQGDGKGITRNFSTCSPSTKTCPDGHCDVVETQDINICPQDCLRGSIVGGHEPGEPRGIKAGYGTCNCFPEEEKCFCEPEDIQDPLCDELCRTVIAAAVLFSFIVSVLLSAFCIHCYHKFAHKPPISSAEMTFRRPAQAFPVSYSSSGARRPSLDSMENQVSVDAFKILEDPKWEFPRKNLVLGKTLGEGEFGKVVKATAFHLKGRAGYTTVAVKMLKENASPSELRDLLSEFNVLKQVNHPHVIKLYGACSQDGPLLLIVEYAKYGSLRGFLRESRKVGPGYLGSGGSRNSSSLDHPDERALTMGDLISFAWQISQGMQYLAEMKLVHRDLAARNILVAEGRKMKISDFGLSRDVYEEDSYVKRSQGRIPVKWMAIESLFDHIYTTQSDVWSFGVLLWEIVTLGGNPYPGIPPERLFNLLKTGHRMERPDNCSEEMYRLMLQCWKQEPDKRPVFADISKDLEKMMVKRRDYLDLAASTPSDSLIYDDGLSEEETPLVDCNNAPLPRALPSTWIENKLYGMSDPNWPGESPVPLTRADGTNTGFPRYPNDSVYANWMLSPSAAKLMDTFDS
A) > 7.62

Q) Recall the reported pIC50 of C[C@@H](Sc1cc(-c2cnn(C3CCNCC3)c2)cnc1N)c1c(Cl)ccc(F)c1Cl when tested on Proto-oncogene tyrosine-protein kinase receptor Ret (Homo sapiens, UniProt P07949).
A) < 6.00

Q) Recall the reported pIC50 of Nc1nc2cc(-c3nn(CC4OCCO4)c4ncnc(N)c34)ccc2o1 when tested on Proto-oncogene tyrosine-protein kinase receptor Ret (Homo sapiens, UniProt P07949).
A) < 4.00
